Cited source for all entries: PubChem BioAssay AID1963866

# Test system: PDC KRAS tumor spheroids with HUVEC/MSC, viability;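 further: spheroids exposed to compounds for seven days before readout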
# measurement_description: Anticancer human tumor 349418-098-R-PDC patient-derived lung adenocarcinoma cell line growth inhibition [KRAS2]
# experimental_setup: second compound 10 µM; first compound 1 µM; stronger effect = lower value
readout_name: viability, T/C (%)
State the answer as a number, implicitly in %.

These recorded examples may help you get a feel for the data.
# compound, test_system, readout_name, value_unit, measurement
records = [
    ("CC1(C)CCC(CN2CCN(c3ccc(C(=O)NS(=O)(=O)c4ccc(NCC5CCOCC5)c([N+](=O)[O-])c4)c(Oc4cnc5[nH]ccc5c4)c3)CC2)=C(c2ccc(Cl)cc2)C1 + COc1cc2nc(C)nc(NC(C)c3cc(N)cc(C(F)(F)F)c3)c2cc1OC1CCOC1", "PDC KRAS tumor spheroids with HUVEC/MSC, viability", "viability, T/C", "%", 21.9),
    ("CCN1CCN(Cc2ccc(Nc3ncc(F)c(-c4cc(F)c5nc(C)n(C(C)C)c5c4)n3)nc2)CC1 + CC1OCC2(CCN(c3cnc(Sc4ccnc(N)c4Cl)c(N)n3)CC2)C1N", "PDC KRAS tumor spheroids with HUVEC/MSC, viability", "viability, T/C", "%", 3.29),
    ("CC(=O)OC12COC1CC(O)C1(C)C(=O)C(O)C3=C(C)C(OC(=O)C(O)C(NC(=O)OC(C)(C)C)c4ccccc4)CC(O)(C(OC(=O)c4ccccc4)C21)C3(C)C (centres undefined) + CC1OCC2(CCN(c3cnc(Sc4ccnc(N)c4Cl)c(N)n3)CC2)C1N", "PDC KRAS tumor spheroids with HUVEC/MSC, viability", "viability, T/C", "%", 31.7),
    ("CC(=O)OC12COC1CC(O)C1(C)C(=O)C(O)C3=C(C)C(OC(=O)C(O)C(NC(=O)OC(C)(C)C)c4ccccc4)CC(O)(C(OC(=O)c4ccccc4)C21)C3(C)C (centres undefined) + COc1cc2nc(C)nc(NC(C)c3cc(N)cc(C(F)(F)F)c3)c2cc1OC1CCOC1", "PDC KRAS tumor spheroids with HUVEC/MSC, viability", "viability, T/C", "%", 23.2),
    ("COc1cc2nccc(Oc3ccc(NC(=O)C4(C(=O)Nc5ccc(F)cc5)CC4)cc3)c2cc1OC + COc1cc2nc(C)nc(NC(C)c3cc(N)cc(C(F)(F)F)c3)c2cc1OC1CCOC1", "PDC KRAS tumor spheroids with HUVEC/MSC, viability", "viability, T/C", "%", 0.78),
    ("COc1cc2nccc(Oc3ccc(NC(=O)C4(C(=O)Nc5ccc(F)cc5)CC4)cc3)c2cc1OC + C=CC(=O)N1CCN(c2nc(=O)n(-c3c(C)ccnc3C(C)C)c3nc(-c4c(O)cccc4F)c(F)cc23)C(C)C1", "PDC KRAS tumor spheroids with HUVEC/MSC, viability", "viability, T/C", "%", 30.1),
    ("CC1(C)CCC(CN2CCN(c3ccc(C(=O)NS(=O)(=O)c4ccc(NCC5CCOCC5)c([N+](=O)[O-])c4)c(Oc4cnc5[nH]ccc5c4)c3)CC2)=C(c2ccc(Cl)cc2)C1 + CNCc1ccccc1-c1csc(C(C)Nc2nc(C)nc3cc(OC)c(OC)cc23)c1", "PDC KRAS tumor spheroids with HUVEC/MSC, viability", "viability, T/C", "%", 0.09),
    ("COc1cc(Nc2ncc3c(n2)-c2ccc(Cl)cc2C(c2c(F)cccc2OC)=NC3)ccc1C(=O)O + COc1cc2nc(C)nc(NC(C)c3cc(N)cc(C(F)(F)F)c3)c2cc1OC1CCOC1", "PDC KRAS tumor spheroids with HUVEC/MSC, viability", "viability, T/C", "%", 9.24),
]

Noted for COc1cc(Nc2ncc3c(n2)-c2ccc(Cl)cc2C(c2c(F)cccc2OC)=NC3)ccc1C(=O)O + C=CC(=O)N1CCN(c2nc(=O)n(-c3c(C)ccnc3C(C)C)c3nc(-c4c(O)cccc4F)c(F)cc23)C(C)C1 : its viability, T/C reads 35.4

Noted for CCN1CCN(Cc2ccc(Nc3ncc(F)c(-c4cc(F)c5nc(C)n(C(C)C)c5c4)n3)nc2)CC1 + CNCc1ccccc1-c1csc(C(C)Nc2nc(C)nc3cc(OC)c(OC)cc23)c1 : its viability, T/C reads 0.1

Noted for CC(C)NCC(C(=O)N1CCN(c2ncnc3c2C(C)CC3O)CC1)c1ccc(Cl)cc1 (centres undefined) + C=CC(=O)N1CCN(c2nc(=O)n(-c3c(C)ccnc3C(C)C)c3nc(-c4c(O)cccc4F)c(F)cc23)C(C)C1 : its viability, T/C reads 9.76

Noted for CC1OCC2(CCN(c3cnc(Sc4ccnc(N)c4Cl)c(N)n3)CC2)C1N (centres undefined) + C=CC(=O)N1CCN(c2nc(=O)n(-c3c(C)ccnc3C(C)C)c3nc(-c4c(O)cccc4F)c(F)cc23)C(C)C1 : its viability, T/C reads 25

Noted for CC(C)NCC(C(=O)N1CCN(c2ncnc3c2C(C)CC3O)CC1)c1ccc(Cl)cc1 (centres undefined) + COc1cc2nc(C)nc(NC(C)c3cc(N)cc(C(F)(F)F)c3)c2cc1OC1CCOC1 : its viability, T/C reads 3.94

Noted for O=C(c1cc(Cc2n[nH]c(=O)c3ccccc23)ccc1F)N1CCN(C(=O)C2CC2)CC1 + C=CC(=O)N1CCN(c2nc(=O)n(-c3c(C)ccnc3C(C)C)c3nc(-c4c(O)cccc4F)c(F)cc23)C(C)C1 : its viability, T/C reads 27

Noted for CCNC(=O)CC1N=C(c2ccc(Cl)cc2)c2cc(OC)ccc2-n2c(C)nnc21 (centres undefined) + C=CC(=O)N1CCN(c2nc(=O)n(-c3c(C)ccnc3C(C)C)c3nc(-c4c(O)cccc4F)c(F)cc23)C(C)C1 : its viability, T/C reads 2.7

Noted for Cn1nccc1Nc1nccc(-c2cc3c(s2)C(C)(C)N(CCN2CCOCC2)C3=O)n1 + COc1cc2nc(C)nc(NC(C)c3cc(N)cc(C(F)(F)F)c3)c2cc1OC1CCOC1 : its viability, T/C reads 3.93
